Listed below: pKa values for each entry.
Assay: Dissociation constant, pKa of the compound
Type: physicochemical
experimentalEndpoint: pKa

[
  {
    "structureSmilesString": "Cc1cc(Oc2ccccc2Oc2ccccc2)c(CN(C)C)cn1",
    "testResult": 4.4
  },
  {
    "structureSmilesString": "CNCc1cnc(C)cc1Oc1ccccc1Oc1ccccc1",
    "testResult": 4.4
  }
]

---

Tested on: P-gp
Assay: Apparent permeability from apical to basolateral side of the dog MDCK cells expressing P-gp transporter
Type: ADME, cell-based, Canis lupus familiaris
Details: MDCK-MDR1
Listed below: Papp A→B values for each entry.

[
  {
    "structureSmilesString": "Cc1cc(Oc2ccccc2Oc2ccccc2)c(CN(C)C)cn1",
    "targetOrSystem": "P-gp",
    "unitInfo": "nm/s",
    "Papp A→B": 410
  },
  {
    "structureSmilesString": "CNCc1cnc(C)cc1Oc1ccccc1Oc1ccccc1",
    "targetOrSystem": "P-gp",
    "unitInfo": "nm/s",
    "Papp A→B": 250
  },
  {
    "structureSmilesString": "Cc1cc(Oc2ccccc2C(C)C)c(CN(C)C)cn1",
    "targetOrSystem": "P-gp",
    "unitInfo": "nm/s",
    "Papp A→B": 380
  }
]

---

Assay: Lipophilicity, logP of the compound
Type: physicochemical
Settings: octanol/water

[
  {
    "structureSmilesString": "CNCc1cnc(C)cc1Oc1ccccc1Oc1ccccc1",
    "logP": 4.4
  }
]

---

Assay: Binding affinity to sodium channel site 2

[
  {
    "structureSmilesString": "CNCc1cnc(C)cc1Oc1ccccc1Oc1ccccc1",
    "Ki / µM": 3.4
  }
]

---

Molecular target: Sodium-dependent dopamine transporter (Homo sapiens)
Sequence (Q01959 whole entry): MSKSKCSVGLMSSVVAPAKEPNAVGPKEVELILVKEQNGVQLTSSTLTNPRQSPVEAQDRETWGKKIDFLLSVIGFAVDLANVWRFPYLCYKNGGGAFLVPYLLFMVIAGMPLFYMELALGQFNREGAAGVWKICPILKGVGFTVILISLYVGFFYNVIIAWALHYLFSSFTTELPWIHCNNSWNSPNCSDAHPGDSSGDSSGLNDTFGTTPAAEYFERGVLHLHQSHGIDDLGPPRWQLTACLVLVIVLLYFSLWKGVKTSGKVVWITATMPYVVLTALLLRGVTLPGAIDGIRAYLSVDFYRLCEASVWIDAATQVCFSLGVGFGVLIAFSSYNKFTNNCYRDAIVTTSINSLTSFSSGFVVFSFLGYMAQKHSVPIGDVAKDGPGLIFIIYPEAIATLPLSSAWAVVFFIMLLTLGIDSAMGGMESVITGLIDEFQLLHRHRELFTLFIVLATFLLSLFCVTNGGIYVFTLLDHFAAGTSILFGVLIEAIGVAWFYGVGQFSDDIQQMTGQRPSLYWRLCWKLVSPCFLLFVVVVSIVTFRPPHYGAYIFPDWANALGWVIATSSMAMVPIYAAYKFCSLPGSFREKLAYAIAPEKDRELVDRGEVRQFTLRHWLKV
Experiment: Inhibition of [3H]WIN-35428 uptake in human DAT transfected HEK293 cells
Listed below: Ki values for each entry.

[
  {
    "structureSmilesString": "CCCc1ccccc1Oc1cc(C)ncc1CN(C)C",
    "Ki (nM)": 2250
  },
  {
    "structureSmilesString": "CNCc1cnc(C)cc1Oc1ccccc1Cl",
    "Ki (nM)": 834
  },
  {
    "structureSmilesString": "Cc1cc(Oc2ccccc2C)c(CN(C)C)cn1",
    "Ki (nM)": 1410
  },
  {
    "structureSmilesString": "Cc1cc(Oc2ccccc2Oc2ccccc2)c(CN(C)C)cn1",
    "Ki (nM)": 2640
  },
  {
    "structureSmilesString": "CCCc1ccccc1Oc1cc(C)ncc1CNC",
    "Ki (nM)": 1980
  }
]

---

Test: Binding affinity to calcium channel L-type at diltiazem site
pKi: −log10 of the molar value.
experimentalEndpoint: pKi

[
  {
    "structureSmilesString": "CNCc1cnc(C)cc1Oc1ccccc1Oc1ccccc1",
    "testResult": 5.92
  }
]
